Consider the following compounds and their measured melting point readings.
quantityKind: melting point

CCCCCCCCCCCCOC(=O)c1cc(N=NN(CCO)c2ccc(C)cc2)ccc1[N+](=O)[O-] ... 64 to 66 °C
CC(C)c1ccc2nc(Cl)cn2n1 ... 69 to 71 °C
CC(C)(C)OC(=O)Nc1cccc(C(=O)NCCC(=O)OCc2ccccc2)c1 ... 130 to 131 °C
CCNc1ccc(NS(=O)(=O)c2ccc(C)cc2)c(C)c1 ... 162 to 163 °C
COC(=O)c1cc(OC)c(OCc2ccccc2)cc1N=CN(C)C ... 134 to 140 °C
NC(=O)c1csc(C2OC(CO)C(O)C2O)n1 (stereo not given) ... 142 to 144 °C
COCCc1nc2c(N)nc3cc(-c4cccnc4)ccc3c2n1CC(C)(C)O ... 158 to 160 °C
Cc1ccc(Nc2nc(-c3cccc(C#N)c3)cs2)nc1 ... 268 to 272 °C
CC(C)(C)OC(=O)NC1CCN(CC23CC(c4ccccc42)c2ccc(Cl)cc23)CC1 (stereo not given) ... 76.5 to 80 °C
N#Cc1nn(-c2c(Cl)cc(C(F)(F)F)cc2Cl)c(N)c1C1CC1(Br)Br (stereo not given) ... 178 to 179 °C

---

Recorded melting point values for a group of compounds are listed next.
quantityKind: melting point

CC(CCc1ccc(Cl)cc1)(Cn1ccnc1)Sc1cccc(Cl)c1Cl (stereo not given) ... 126 to 128 °C
Cc1ccc(N(C)S(=O)(=O)c2cccs2)c2[nH]c(-c3ncc(CN4CCC(O)C4)s3)cc12 (stereo not given) ... 190 to 191 °C
COC(=O)NC(=NS(=O)(=O)NC(C)C)OC(C)C ... 62 to 64 °C
CC(C)c1ccc2nc3ccc(C#N)cc3c(=O)n2c1 ... 207 to 211 °C
CN(C)CCOc1ccccc1CC(=O)N1C[C@@H]2C(=O)CCC(c3ccccc3)(c3ccccc3)[C@@H]2C1 (racemic) ... 90 °C
CC(C)N(CCCc1ccccc1)[C@H]1CC[C@H](c2ccc(O)cc2)CC1 ... 146 to 154 °C
N#CSCc1ccc(C(=O)c2ccc(Cl)cc2)cc1 ... 129 to 131 °C
CC(=O)OCc1cn(C(c2ccccc2)(c2ccccc2)c2ccccc2)cn1 ... 133 to 134 °C
COc1ccccc1C1=CC(=O)CCC1CC(=O)O (stereo not given) ... 183 to 184 °C
NCCNCCCNCCN1C(=O)c2cccc3cc4ccccc4c(c23)C1=O ... 150 °C

---

quantityKind: melting point

N#Cc1nc(Cl)c(-c2cccc(Cl)c2)nc1C#N ... 87 to 88 °C
O=[N+]([O-])c1cnc(Sc2n[nH]c(-c3cccs3)n2)s1 ... 179 to 181 °C
CCCS(=O)(=O)N(COC)C(=O)c1nc(OC)cc(OC)n1 ... 59 to 62 °C
CCCCCCOC(=O)Oc1ccc(-c2ccc(C#N)cc2)cc1 ... 87.1 to 87.5 °C
C=CCc1cccc(CC(NC(C)=O)C(=O)OCc2ccccc2)c1 (stereo not given) ... 55 to 56.5 °C
CC1(C)CON(Cc2ccc(NC(=O)Cc3ccccc3C(=O)O)cc2Cl)C1=O ... 194 to 196 °C
C=CCOc1ccc(CC(NC(O)OC(C)(C)C)C(=O)NC(C(=O)NC(C=C)C(=O)OC)C(C)C)cc1 (stereo not given) ... 104 to 106 °C
CCCCCCCNC(=O)Nc1ccccc1C(=O)Nc1ccc(N(C)C)cc1 ... 178 to 180 °C
C=CCc1ccccc1OCC(O)CNC1CCc2ccccc2C1 (stereo not given) ... 70 to 72 °C
Cc1cc2c(C(=O)C3=C(O)C4CCC(C4)C3=O)ccc(S(C)(=O)=O)c2o1 (stereo not given) ... 258 to 259 °C
Cc1ccccc1NC(C#N)c1c(Cl)cccc1Cl (stereo not given) ... 108 °C
CC(C)(C)OC(=O)CON1C(=O)c2ccccc2C1=O ... 140 to 141 °C
N#Cc1cc(NC(=O)c2ccn(-c3ccc(F)cc3)c2)ccc1N1CCN(C2CCOCC2)CC1 ... 240 °C
COc1ccc2nc(-c3ccc(Cl)cc3)cn2c1 ... 148 to 149 °C
N#Cc1c(N)nc2ccccc2c1NCc1ccco1 ... 206 °C
O=c1[nH]c(N2CCOCC2)nc2c(N3CCCCCC3)nc(N3CCOCC3)cc12 ... 240 °C
C[C@@H]1CN(c2c(F)cc3c(=O)c(C(=O)O)cn(C4CC4)c3c2F)C[C@H]1N (relative stereo) ... 257 to 260 °C
COC1N=C(c2ccccc2Cl)c2cc(Cl)ccc2-c2cn(C)cc21 (stereo not given) ... 128 to 130 °C
c1cn(CCc2nc(-c3ccc4c(c3)OCO4)c3cc4c(cc3n2)OCO4)cn1 ... 160 to 163 °C
CN(C)C(N)=Nc1cc(S(C)=O)ccc1N1CCOCC1 (stereo not given) ... 160 to 161 °C

---

quantityKind: melting point

COc1ccc(C(=O)Nc2ccccc2)cc1NCc1cccc(O)c1 ... 168 to 170 °C
Cc1ccc(SC(Cc2ccc(OCCN(C)c3nc4ccccc4o3)cc2)C(=O)O)cc1 (centres undefined) ... 137 °C
COC(=O)c1cccc(-c2cc(CCNC(=O)C3CCC3)c3cc(OC)ccc3c2)c1 ... 128 to 130 °C
COC(=O)C1=C(C)NC(C(C)(OC)OC)=C(C(=O)OC)C1c1ccccc1Cl (centres undefined) ... 145 to 146 °C
CN1C(=O)[C@@H](NC(=O)c2ccccc2I)N=C(c2ccccc2)c2ccccc21 ... 115 to 120 °C
FC(F)(F)Sc1ccc2c(c1)C(=C1CCN(CC3CC3)CC1)c1ccccc1C=C2 ... 143 to 144 °C
CS(=O)(=O)c1ccccc1-c1cc(CCO)nn1C1CCCCC1 ... 108 °C
CCOCc1nc2c(N)nc3cc(OCCCCCCNS(C)(=O)=O)ccc3c2n1CC(C)(C)NC(=O)NC(C)C ... 190 to 194 °C
O=C(O)c1cc(Cl)cc([N+](=O)[O-])c1NCc1ccccc1Cl ... 160 to 161 °C

---

Each entry below carries its reported melting point.
quantityKind: melting point

CCCCOc1cc2c3c(ccc4c5ccc6c7c(cc(OCCCC)c(c1c34)c75)-c1ccccc1C6=O)C(=O)c1ccccc1-2 ... 275 to 280 °C
O=[N+]([O-])c1ccccc1-c1ccc(CBr)cc1 ... 109 to 110 °C
N#CC1Cc2ccc([N+](=O)[O-])cc2C1 (stereo unspecified) ... 80 to 82 °C
Cc1ccc(-c2ccccc2)c(C)c1CO ... 77 to 78 °C
CCCCc1c(C(=O)c2ccc(OC)cc2)c2cc([N+](=O)[O-])ccc2n1C ... 168 °C
OCc1nccc(N2CCCCC2)c1Br ... 51 to 53 °C
CN(C)Cc1ncccc1OC1SCC(O)C(O)C1O (stereo unspecified) ... 79 °C
C#C[C@@H](O)C1CCCCC1 ... 56 to 58 °C
Cc1ccc(S(=O)(=O)OC[C@H]2CN(c3ccc(N4CCSCC4)c(F)c3)C(=O)O2)cc1 ... 141 °C
Cc1ccc(N2CCCN(c3cc[nH]c(=S)c3C#N)CC2)cc1[N+](=O)[O-] ... 277 to 278 °C
Cc1coc(N(CCCCCCN)c2nc(C)co2)n1 ... 124 °C
C[C@]1(CN2CCN(Nc3ccc(C(F)(F)F)cc3)CC2)Cn2cc([N+](=O)[O-])nc2O1 ... 192 to 195 °C
OC(CCc1cccnc1)COc1ccc2ccccc2c1 (stereo unspecified) ... 93 to 95 °C
O=C(O)CCc1c(C=C2C(=O)Nc3ccc(Br)cc32)[nH]c2c1CCCC2 ... 286 to 289 °C
NS(=O)(=O)c1ccccc1C(=O)OCCO ... 84 to 86.5 °C
COc1ccc(C(=O)Nc2ccccc2)cc1NC(=NC#N)Nc1cc(Cl)cc(Cl)c1 ... 225 to 227 °C
CC(=O)c1ccc(Oc2ccc(C(C)=O)cc2)cc1 ... 102 °C
C1CCCCN2CCOCCOCCN(CCC1)CCOCCOCC2 ... 90 to 91 °C
CC(=O)COc1ccn2nc(-c3ccccc3)c(-c3ccc(=O)n(C(C)C)n3)c2c1 ... 172 to 174 °C
O=C(c1ccccc1)c1cc([N+](=O)[O-])ccc1-n1nc(CO)cc1CO ... 145 to 147 °C
CC1CC(=O)NN=C1c1ccc2c(c1)N(C1CCCC1)C(=O)C(C)O2 (stereo unspecified) ... 220 to 223 °C

---

quantityKind: melting point

O=C(c1ccc(Cl)cc1)c1nccs1 ... 101 to 103 °C
COc1cc(C(=O)OCc2ccc3nc(N)nc(N)c3c2)cc(OC)c1OC ... 223 to 227 °C
COC(=O)CN(C)C(=O)c1ccc(OC)c2cc(OC)ccc12 ... 105 to 107 °C
O=CNn1cnc2cc(C(F)(F)F)ccc21 ... 209 to 210 °C
COc1cccc2c1-c1c(ccn1CCNC(C)=O)CC2 ... 132 to 133 °C
CCOCc1nc2c(c(C)c(C)n3nnnc23)n1CCNC(=O)OC(C)(C)C ... 197 to 199 °C
O=C(O)c1cc(-c2ccccc2)c2c(n1)OCCN(Cc1cc(C(F)(F)F)cc(C(F)(F)F)c1)C2=O ... 119 to 123 °C
CCSc1ccc(-c2coc3ccc(-c4nnc(C)o4)cc23)cc1F ... 115 to 116 °C
COc1cc(-c2ccc(-c3ccc(N=Nc4ccccn4)c(OC)c3)o2)ccc1N=Nc1ccccn1 ... 212 to 213 °C
O=C(OC(Cc1ccccc1)C(=O)O)c1ccccc1 (stereo unspecified) ... 113 °C
OCc1ccc(I)c(Cl)c1 ... 80 to 82 °C
